All values here come from PubChem BioAssay (NCI).

Assign growth to each entry below.
Test system: NCI-H322M lung
assay-summary: NCI-60 one-dose screen, 48 h (100 = growth as untreated, 0 = no growth, -100 = all killed)
conditions-used: 10 µM unless noted
This is part of a sample that, as a whole, favours compounds with a hit. Of some 83,000 tested, about 20% had one in any assay.
Give bare numbers, in %.

Examples with answers:
molecule=O=C(Cn1c(=O)sc2ccccc21)NNS(=O)(=O)c1ccccc1[N+](=O)[O-] value_observed=104
molecule=N#Cc1cccc(F)c1 value_observed=115
molecule=O=C(Cn1c2c(c3ccccc31)CCCC2)Nc1ccc(-c2nc3ccccc3s2)cc1 value_observed=101

Consider the following items and state reported growth for each.
1. N#Cc1nn(-c2cc(=O)[nH]c3ccc(Cl)cc23)c(N)c1C#N
2. N#Cc1cnc(NCCc2ccncc2)nc1-n1cnc2ccccc21
3. CCN(CC)CCCN1C(=O)c2c(c(C)c3c(oc4cc(O)ccc43)c2C)C1=O
4. COc1cc(OC)c2sc(-c3ccc(-n4cncc4-c4ccc(OC)c(OC)c4)cc3)nc2c1
5. C=CC(=O)NCc1ccc(Nc2nccc(-c3ccc(N4CCCC4)c(C#N)c3)n2)cc1

91.9
35
92.5
92.3
41

----------
Tested on: HOP-92 NSCLC
assay-summary: NCI-60 one-dose screen, 48 h (100 = growth as untreated, 0 = no growth, -100 = all killed)
conditions-used: 10 µM unless noted
Compounds without any hit were thinned out: in the full panel of roughly 83,000, 20% have a hit.
Binned growth; ranges: bucket 1: < 40%; bucket 2: ≥ 40% and < 90%; bucket 3: ≥ 90%

compound=COP(=O)(OC)C(C)(C)CC(=O)CC(C#N)(C#N)C(C#N)C#N class="bucket 2"
compound=c1cc2[nH]ncc2cc1-c1nc2ccc3[nH]ncc3c2c2c1CCCC2 class="bucket 1"
compound=O=C1c2ccc3c4ccc5c6c(ccc(c7ccc(c2c37)C(=O)N1CCC[P+](c1ccccc1)(c1ccccc1)c1ccccc1)c64)C(=O)N(CCC[P+](c1ccccc1)(c1ccccc1)c1ccccc1)C5=O class="bucket 2"
compound="COc1cc2c(c(OC)c1OC)CCC(c1cccc(C(=O)Nc3cccc(Br)c3)c1)O2 (stereo not drawn)" class="bucket 1"
compound=COc1cccc(/C=C/C(=O)c2cc3c(N)c(C(=O)Nc4ccccc4)sc3nc2C)c1 class="bucket 2"
compound=C/C(=N\NC(=O)c1ccccc1O)c1cccc(/C(C)=N/NC(=O)c2ccccc2O)n1 class="bucket 2"
compound=COc1ccc2c(c1)c(-c1noc(C(=O)c3cn(C)c4ccc(Br)cc34)n1)cn2C class="bucket 3"
compound=COC(=O)c1c2c(c(C)[n+]([O-])c1C)C(=O)C=C(NCc1ccc(Br)cc1)C2=O class="bucket 1"

Classify this compound: C=C(C)[C@@H]1CC[C@]2(C(=O)O)CC[C@]3(C)[C@H](CC[C@@H]4[C@@]5(C)C[C@@H](Cc6cn(CCO[C@@H]7O[C@H](COC(C)=O)[C@H](OC(C)=O)[C@H](OC(C)=O)[C@H]7OC(C)=O)nn6)[C@H](O)C(C)(C)[C@@H]5CC[C@]43C)[C@@H]12 bucket 1

Classify this compound: O=C(CSc1nc2ccc([N+](=O)[O-])cc2[nH]1)Nc1cccc(C(F)(F)F)c1 bucket 1

Classify this compound: CCN(CC)c1ccc(/C=C/C(=O)c2ccc(Nc3nc(Nc4ccccc4)nc(Nc4ccccc4)n3)cc2)cc1 bucket 1

Classify this compound: CC(=O)OC[C@]12CCC(C)(C)C[C@H]1[C@@]1(O)[C@H](O)C[C@@H]3[C@@]4(C)CCCNC(C)(C)[C@@H]4CC[C@@]3(C)[C@]1(C)CC2 bucket 3

Classify this compound: Cn1c(=O)c2c(nc(NC3=NS(=O)(=O)c4ccccc43)n2CC(=O)N2CCc3ccccc32)n(C)c1=O bucket 3

Classify this compound: Nc1nc2c([nH]1)c1[nH]c3ccccc3c1c1[nH]c3ccccc3c21 bucket 1

Classify this compound: O=C(COc1ccc(-c2nc3ccccc3[nH]2)cc1)N=Nc1c(O)[nH]c2ccc(Cl)cc12 bucket 3

Classify this compound: N#Cc1nc(-c2ccccc2)oc1S(=O)(=O)N1CCOCC1 bucket 3

Classify this compound: COc1cc(-c2cc(-c3ccc(N(C)C)cc3)nc(N3CCC(O)CC3)c2C#N)cc(OC)c1OC bucket 1

Classify this compound: CCN(CC)CCOc1ccc(-c2c(-c3ccccc3)c(=O)oc3ccccc23)cc1 bucket 2

Classify this compound: O=C1CNC(c2ccccc2)C(c2ccccc2)N1 (stereo not drawn) bucket 2

Classify this compound: O=C1c2cccc3cccc(c23)C(=O)N1N1C(=O)c2cccc3c(N4CCOCC4)ccc(c23)C1=O bucket 2

----------
System: COLO 205 colon
assay-summary: NCI-60 one-dose screen, 48 h (100 = growth as untreated, 0 = no growth, -100 = all killed)
conditions-used: 10 µM unless noted
This is part of a sample that, as a whole, favours compounds with a hit. Of some 83,000 tested, about 20% had one in any assay. The source made the active and inactive calls. Rule for the calls: active = growth percent below 10; inactive = the rest.
measured-endpoint: growth

Consider the following items and state reported growth for each.
1. COC(=O)c1cc(-c2ccc(OC)cc2)[nH]c1N/N=C/c1c(Cl)cccc1Cl
2. C[C@]12CC[C@@H]3c4ccc(O)c([N+](=O)[O-])c4CC[C@H]3[C@@H]1CCC2=O

-23.9% (active)
159% (inactive)

Consider the following items and state reported growth for each.
1. COc1cc(CNS(=O)(=O)c2ccc(C)cc2)ccc1OCc1cn(-c2ccc(F)cc2)nn1
2. O=C(Nc1cc(Cl)ccc1O)c1ccc(Nc2ccnc(C(F)(F)F)c2)cc1

88% (inactive)
87.9% (inactive)

Lab note: measured growth of O=C(CSc1nc2sc3c(c2c(=O)n1-c1ccccc1)CCCCC3)N/N=C/c1ccc(F)cc1 was 33% (inactive)

----------
Test system: HOP-92 NSCLC
assay-summary: NCI-60 one-dose screen, 48 h
conditions-used: 10 µM unless noted
Compounds without any hit were thinned out: in the full panel of roughly 83,000, 20% have a hit. Activity calls are given as the source filed them. The calls were made as follows: active = growth percent below 10; inactive = the rest.
Response enum: active, inactive

Consider the worked cases shown below.
compound=O=C(OCc1ccc2cccc(O)c2n1)N1CCN(C(=O)c2cc3cc(F)ccc3[nH]2)CC1 class=active
compound=COc1cc(/C=C/C(=O)c2cccc(Nc3nc(Nc4ccccc4)nc(Nc4ccccc4)n3)c2)cc(OC)c1OC class=active
compound=CC1=Nc2cnc(Nc3ccc(OCCN4CCCC4)cc3)nc2Nc2ccccc21 class=inactive
compound=COc1ccc2c(O)c(/C=C3\N=Nc4ncccc43)oc2c1C[C@H]1CCNC[C@H]1F class=inactive

Could you please tell me the result logged for Cc1nc(N2CCOCC2)sc1S(N)(=O)=O in this assay? inactive

Could you please tell me the result logged for CCc1ccc(C(=O)/C=C/C23c4ccccc4C(c4ccccc42)C2C(=O)NC(=O)C23)cc1 (stereo not given) in this assay? active

Could you please tell me the result logged for CCN(c1ccc(Cl)cc1)c1nc(-c2ccc([N+](=O)[O-])cc2)cs1 in this assay? inactive

Could you please tell me the result logged for Oc1c(Cl)cc(Cl)c2ccc(Cn3cc(-c4ccc(C(F)(F)F)cc4)nn3)nc12 in this assay? inactive

Could you please tell me the result logged for Brc1ccc(-n2cc(-c3nn[nH]n3)c(-c3cccs3)n2)cc1 in this assay? inactive

----------
Tested on: OVCAR-4 ovarian
assay-summary: NCI-60 one-dose screen, 48 h
conditions-used: 10 µM unless noted
Compounds without any hit were thinned out: in the full panel of roughly 83,000, 20% have a hit. Active and inactive are the calls of the source. The calls were made as follows: active = growth percent below 10; inactive = the rest.
Response enum: active, inactive

smiles_string=O=C(NNc1nccc(Nc2ccc(S(=O)(=O)Nc3ccncc3)cc2)n1)c1ccccc1 class=inactive
smiles_string=C/C(=N/O)c1ccc(F)cc1 class=inactive
smiles_string=Clc1ccc(Sc2cnc(-c3ccccc3)o2)cc1 class=inactive

Now let's try a different one.
Could you please tell me the result logged for COc1ccc(-c2nc(SCC(C)C)nc(N/N=C\c3ccc(F)cc3)c2C#N)cc1 in this assay? active

----------
Tested on: UACC-62 melanoma
assay-summary: NCI-60 one-dose screen, 48 h (100 = growth as untreated, 0 = no growth, -100 = all killed)
conditions-used: 10 µM unless noted
This is part of a sample that, as a whole, favours compounds with a hit. Of some 83,000 tested, about 20% had one in any assay.
Threshold 90%. growth below it: MET. growth at it or above: NOT MET.

Consider the worked cases shown below.
compound=O=Cc1ccc([N+](=O)[O-])s1 system_under_test="UACC-62 melanoma" class=MET
compound=COc1ccc(-c2ccc3cnc4sc(-c5ccc(OC)cc5)nc4c3n2)cc1 system_under_test="UACC-62 melanoma" class="NOT MET"
compound=O=c1c2cc(-c3ccccc3)sc2nc2sc(-c3ccccc3)nn12 system_under_test="UACC-62 melanoma" class="NOT MET"
compound="NC(=O)CCC(C(=O)O)N1C(=O)c2ccc(O)cc2C1=O (centres undefined)" system_under_test="UACC-62 melanoma" class="NOT MET"
compound=COc1cc(C(=O)n2nc(N3CCN(C)CC3)c3cc(N)ccc32)cc(OC)c1OC system_under_test="UACC-62 melanoma" class=MET
compound=S=C1CCSC(=S)N1CCCN1C(=S)CCSC1=S system_under_test="UACC-62 melanoma" class=MET

Confirm or reject: growth of CC1(c2ccccc2O)NN=C(/N=C/c2cccc([N+](=O)[O-])c2)N1C(Cc1c[nH]c2ccccc12)C(=O)O (centres undefined) lies strictly below 90% MET

Confirm or reject: growth of Cn1c(=O)c2[nH]c(N/N=C/c3ccccc3Br)nc2n(C)c1=O lies strictly below 90% NOT MET

Confirm or reject: growth of COc1ccc(NC(=O)c2sc3nc(C)c(C(=O)/C=C/c4cccc(OC)c4)cc3c2N)cc1 lies strictly below 90% MET

Confirm or reject: growth of C=C(C)[C@@H]1CC[C@]2(C(=O)NCCNCCN)CC[C@]3(C)[C@H](CC[C@@H]4[C@@]5(C)C/C(=C/c6ccncc6)C(=O)C(C)(C)[C@@H]5CC[C@]43C)[C@@H]12 lies strictly below 90% MET

Confirm or reject: growth of COc1cc2c(c(OC)c1OC)C(=O)CC(c1cccc(NC(=O)c3ccc(Br)cc3)c1)O2 (centres undefined) lies strictly below 90% MET

Confirm or reject: growth of N#Cc1c(-c2ccc(Cl)cc2)nc(NN=Cc2cccc(O)c2)nc1N1CCOCC1 lies strictly below 90% NOT MET

Confirm or reject: growth of CCN1C(=O)N(CC)C2C1NN=c1s/c(=C\c3ccc(Cl)cc3Cl)c(=O)n12 (centres undefined) lies strictly below 90% MET
